The reported measurements were obtained from ChEMBL document CHEMBL1201862.

Reported GI50 values for the following compounds.
- System: LXFL 529
- assay notes: NCI tumour cell line growth inhibition, 48 h
Calls of active or inactive are those of the source. Rule as the data show it: active = GI50 up to about 1.1 µM and inactive = higher.

Example compounds with recorded GI50:
>>> df
                              smiles_record  test_target      value_reported
0  CS/C(C)=N/OC(=O)NCCCCNc1ccc(N=[N+]=[N-])cc1     LXFL 529  24.1 µM (inactive)
1         O/N=C1/CCCC/C1=C\c1ccc(Cl)c(Cl)c1     LXFL 529  19.7 µM (inactive)

We next turn to a different compound, shown below.
Query :: What does the data say about its GI50? Entry: CN(C)CCCNC(=O)N/N=C/c1cccc([N+](=O)[O-])c1
Result :: > 100 µM (inactive)
